test system: HeLa; experiment: Reduction in mitochondrial ATP content in human HeLa cells expressing mitochondrially targeted Photinus pyralis luciferase at 1 uM by luciferin-luciferase assay; type: ADME, cell-based
valueKind: Activity

> print(dat)
                             chemicalstring  assaysystem  datavalue
1  O=C1NCN(c2ccccc2)C12CCN(S(=O)(=O)c1ccc(Cl)s1)CC2         HeLa  Non-Toxic
2  O=C1NCN(c2cccc(C(F)(F)F)c2)C12CCN(Cc1ccccc1)CC2         HeLa  Non-Toxic
3  Cc1ccc(S(=O)(=O)N2CCC3(CC2)C(=O)NCN3c2ccccc2)cc1         HeLa      Toxic
4  O=C1N=CN(c2ccc(Cl)cc2)C12CCN(Cc1ccccc1)CC2         HeLa      Toxic
